The values you see were collected from ChEMBL document CHEMBL5725324.

# target of assay: Complement factor D (Homo sapiens, UniProt P00746)
# Sequence (P00746 whole entry): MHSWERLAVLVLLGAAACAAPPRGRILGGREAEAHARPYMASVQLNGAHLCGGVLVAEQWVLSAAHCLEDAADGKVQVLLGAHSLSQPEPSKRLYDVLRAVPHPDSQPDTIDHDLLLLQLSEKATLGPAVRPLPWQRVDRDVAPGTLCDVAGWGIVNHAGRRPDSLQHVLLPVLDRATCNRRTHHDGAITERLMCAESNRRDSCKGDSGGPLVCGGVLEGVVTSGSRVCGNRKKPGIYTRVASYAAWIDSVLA
# assay comment: Human Factor D Assay: Human factor D (purified from human serum, Complement Technology, Inc.) at 80 nM final concentration is incubated with test compound at various concentrations for 5 minutes at room temperature in 50 mM Tris, 1M NaCl, pH 7.5. A synthetic substrate Z-L-Lys-SBzl and DTNB (Ellman's reagent) are added to final concentrations of 100 μM each. The increase in color is recorded at OD405 nm in a microplate in kinetic mode over 30 minutes with 30 second time points in a […]. IC50 values are calculated by non-linear regression from the percentage of inhibition of complement factor D activity as a function of test compound concentration.
measure: IC50

Given the compound "CC(=O)c1cn(CC(=O)N2[C@@H]3C[C@@H]3C[C@H]2C(=O)NCc2cccc(Cl)c2F)c2ccc(NC(=O)N3CCCC3)cc12" , what is its reported IC50?
< 1000 nM
